Quick list: efflux ratio at 2 h, 10 PM per entry.
- Test system: MDR1 (Pgp)
- protocol-notes: Permeability Assay, bi-directional flux in MDCKII-MDR1 cells
- Format: in vitro ADME, canine
- condition-details: dog, MDCK-MDR1, ratio >2 indicates the compound is effluxed, read-out: efflux ratio (PappB-A/PappA-B)
endpoint-label: efflux ratio at 2 h, 10 PM

CC1(C)CNC[C@@H](COc2nc(-c3cnn(C(C)(C)C)c3)cc3ncccc23)O1; ≤ 1
CC(C)n1cc(-c2cc(OC[C@@H]3CNCC(C)(C)O3)c3cccnc3c2)cn1; 1 to 2
CC(C)n1ccc(-c2cc3ncccc3c(OC[C@@H]3CNCCO3)n2)c1; 1 to 2
Cn1ccc(-c2cc(OC[C@@H]3CNCCO3)c3cccnc3c2)c1; ≤ 1
CC(C)n1ccc(-c2cc3ncccc3c(OC[C@@H]3CNCC(C)(C)O3)n2)c1; ≤ 1
Cn1ccc(-c2cc3ncccc3c(OC[C@@H]3CNCCO3)n2)c1; ≤ 1
